# ASSAYED_TARGET: T1, mCry3A insecticidal protein (Bacillus thuringiensis subsp. …, UniProt P0A379 48-644, limits assumed)
# T1 construct: also called modified Cry3A
# T1 sequence: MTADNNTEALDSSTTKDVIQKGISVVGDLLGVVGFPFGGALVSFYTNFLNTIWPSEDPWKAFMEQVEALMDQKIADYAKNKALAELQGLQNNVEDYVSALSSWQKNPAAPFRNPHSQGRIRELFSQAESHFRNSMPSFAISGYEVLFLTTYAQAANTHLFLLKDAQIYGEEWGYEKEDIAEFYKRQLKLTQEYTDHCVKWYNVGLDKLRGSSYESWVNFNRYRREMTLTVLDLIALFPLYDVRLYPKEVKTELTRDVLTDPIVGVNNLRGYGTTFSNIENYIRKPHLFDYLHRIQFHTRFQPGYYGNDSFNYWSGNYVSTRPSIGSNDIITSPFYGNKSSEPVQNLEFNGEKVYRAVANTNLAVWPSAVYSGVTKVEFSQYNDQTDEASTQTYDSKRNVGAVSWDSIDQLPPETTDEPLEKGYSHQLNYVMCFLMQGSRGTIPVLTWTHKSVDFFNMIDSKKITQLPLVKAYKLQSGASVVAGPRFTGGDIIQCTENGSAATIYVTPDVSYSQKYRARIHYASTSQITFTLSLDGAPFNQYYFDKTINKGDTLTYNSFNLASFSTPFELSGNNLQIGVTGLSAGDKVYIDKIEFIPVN
# PROCEDURE_SUMMARY: direct ELISA: protein coated at 500 ng/ml, 10 nM tagged synNAPS with SA-AP
MEASUREMENT_NAME: Binding to Insecticidal Protein (read at 405 nm) (absorbance 405 nm)
Field: numeric (absorbance 405 nm). Do not append units.

Please review the following examples before continuing.
BINDER	UNIT_NAME	READOUT_NUMBER
synNAPS-9tag ligand (designed binder, in vivo biotinylation (E. coli BirA strain) on the C-terminal avidin-tag, also called NsynNAPS9; tagged synNAPS 9) MRGSHHHHHHGSVKVKFAQGGEEKEVDTSKIYRVPRHGKIVFFMYDDNGKGGFGHVTEKDAPKELLDMLARAEREKKLGSGLNDIFEAQKIEWH	absorbance 405 nm	0.7
synNAPS-11tag ligand (designed binder, in vivo biotinylation (E. coli BirA strain) on the C-terminal avidin-tag, also called tagged synNAPS 11) MRGSHHHHHHGSVKVKFGLGGEEKEVDTSKIRRVLRLGKLVSFTYDDNGKIGLGDVHEKDAPKELLDMLARAEREKKLGSGLNDIFEAQKIEWH	absorbance 405 nm	2.9
synNAPS-7tag ligand (designed binder, in vivo biotinylation (E. coli BirA strain) on the C-terminal avidin-tag, also called tagged synNAPS 7) MRGSHHHHHHGSVKVKFKVHGKEKEVDTSKILAVARWGKAVIFAYDDNGKHGRGQVSEKDAPKELLDMLARAEREKKLGSGLNDIFEAQKIEWH	absorbance 405 nm	0.7
synNAPS-8tag ligand (designed binder, chain 1: biotinylated in vivo on the C-terminal avidin-tag (E. coli BirA strain). The patent does not name the residue; it is presumably the tag's Lys, pos 90, written K., also called tagged synNAPS 8) MRGSHHHHHHGSVKVKFHGRGEEKEVDTSKIFWVYRDGKRVLFRYDDNGKRGFGSVPEKDAPKELLDMLARAEREKKLGSGLNDIFEAQKIEWH	absorbance 405 nm	1.6

Query: Query (binder): synNAPS-6tag ligand (designed binder, in vivo biotinylation (E. coli BirA strain) on the C-terminal avidin-tag, also called tagged synNAPS 6) MRGSHHHHHHGSVKVKFMRWGEEKEVDTSKITYVTRWGKTVIFYYDDNGKKGHGSVLEKDAPKELLDMLARAEREKKLGSGLNDIFEAQKIEWH ; field requested: Binding to Insecticidal Protein (read at 405 nm)
Response: 1.1
